These data points were gathered from patent US20250214991A1.

The entries below come with measured DC50 values attached.
study target: IKZF2 (Homo sapiens (Human), UniProt Q96SW2+Q9UKS7)
Sequence (Q9UKS7 whole entry): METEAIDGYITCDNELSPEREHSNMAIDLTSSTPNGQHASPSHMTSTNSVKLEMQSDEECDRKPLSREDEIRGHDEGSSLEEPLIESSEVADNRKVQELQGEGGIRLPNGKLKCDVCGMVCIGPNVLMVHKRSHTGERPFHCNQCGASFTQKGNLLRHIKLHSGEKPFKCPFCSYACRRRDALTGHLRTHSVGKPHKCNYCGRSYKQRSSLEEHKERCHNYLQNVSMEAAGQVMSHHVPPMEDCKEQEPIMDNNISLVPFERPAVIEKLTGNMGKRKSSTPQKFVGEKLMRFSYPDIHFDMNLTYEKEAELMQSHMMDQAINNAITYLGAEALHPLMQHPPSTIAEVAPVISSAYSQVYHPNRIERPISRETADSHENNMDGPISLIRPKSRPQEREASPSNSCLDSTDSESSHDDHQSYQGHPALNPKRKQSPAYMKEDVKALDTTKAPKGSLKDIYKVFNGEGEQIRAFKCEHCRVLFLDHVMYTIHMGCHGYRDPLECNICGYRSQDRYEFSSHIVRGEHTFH
Sequence (Q96SW2 whole entry): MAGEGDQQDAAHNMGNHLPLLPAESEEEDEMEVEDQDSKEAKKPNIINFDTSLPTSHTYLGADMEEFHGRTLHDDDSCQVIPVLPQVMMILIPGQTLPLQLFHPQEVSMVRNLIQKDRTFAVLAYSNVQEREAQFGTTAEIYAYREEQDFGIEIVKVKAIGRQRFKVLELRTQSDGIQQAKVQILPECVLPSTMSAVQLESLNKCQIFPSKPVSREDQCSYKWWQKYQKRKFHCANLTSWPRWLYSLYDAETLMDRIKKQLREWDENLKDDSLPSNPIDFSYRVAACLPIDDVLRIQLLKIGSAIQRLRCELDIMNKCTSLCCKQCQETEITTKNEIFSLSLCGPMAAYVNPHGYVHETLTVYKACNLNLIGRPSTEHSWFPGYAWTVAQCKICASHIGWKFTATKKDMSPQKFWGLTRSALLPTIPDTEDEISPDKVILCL
Sequence (Q16531 2-1140 partner): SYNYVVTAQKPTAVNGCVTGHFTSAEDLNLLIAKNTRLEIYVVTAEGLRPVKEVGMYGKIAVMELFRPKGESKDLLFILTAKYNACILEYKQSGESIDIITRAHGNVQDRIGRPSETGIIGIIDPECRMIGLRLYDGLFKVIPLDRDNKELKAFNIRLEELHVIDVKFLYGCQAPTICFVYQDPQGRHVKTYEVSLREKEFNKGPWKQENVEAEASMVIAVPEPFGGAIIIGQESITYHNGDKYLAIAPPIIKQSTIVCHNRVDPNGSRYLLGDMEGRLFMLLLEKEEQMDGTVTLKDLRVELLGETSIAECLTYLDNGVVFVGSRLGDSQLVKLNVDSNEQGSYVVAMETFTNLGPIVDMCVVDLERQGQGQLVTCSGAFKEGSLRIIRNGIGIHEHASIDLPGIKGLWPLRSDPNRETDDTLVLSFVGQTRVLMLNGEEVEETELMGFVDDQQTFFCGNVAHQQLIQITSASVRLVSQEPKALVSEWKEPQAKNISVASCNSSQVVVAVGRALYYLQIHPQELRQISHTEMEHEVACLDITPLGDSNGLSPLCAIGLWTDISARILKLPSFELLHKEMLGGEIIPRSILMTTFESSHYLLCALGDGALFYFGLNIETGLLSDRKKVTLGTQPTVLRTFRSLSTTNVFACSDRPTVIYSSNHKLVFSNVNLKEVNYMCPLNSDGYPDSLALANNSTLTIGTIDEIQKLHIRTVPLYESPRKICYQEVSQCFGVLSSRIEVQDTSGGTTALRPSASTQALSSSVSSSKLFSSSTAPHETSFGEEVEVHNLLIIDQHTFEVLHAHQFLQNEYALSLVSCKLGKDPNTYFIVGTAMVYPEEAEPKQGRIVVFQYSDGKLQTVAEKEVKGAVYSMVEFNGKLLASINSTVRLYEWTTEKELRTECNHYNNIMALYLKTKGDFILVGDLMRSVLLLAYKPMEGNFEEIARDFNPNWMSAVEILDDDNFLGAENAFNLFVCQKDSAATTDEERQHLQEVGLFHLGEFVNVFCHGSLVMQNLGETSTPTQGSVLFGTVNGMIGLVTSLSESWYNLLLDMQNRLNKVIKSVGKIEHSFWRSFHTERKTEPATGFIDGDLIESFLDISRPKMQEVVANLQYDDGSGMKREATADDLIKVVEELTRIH
assay overview: In vitro IKZF2 FACS Assay in Jurkat cells
Type: cell-based
condition summary: 24 hrs, half maximal degradation concentration

| compound | DC50 |
| --- | --- |
| C[C@H](c1ccccc1)N(C)Cc1cc(-c2ccc3c(c2)CN(C2CCC(=O)NC2=O)C3=O)n2cncc2c1 (single isomer, unassigned) [Example 17] | 0.01 to 0.1 µM |
| C[C@@H](NCc1cc(-c2ccc3c(c2)CN(C2CCC(=O)NC2=O)C3=O)n2cncc2c1)c1ccccc1 (single isomer, unassigned) [Example 16] | 0.01 to 0.1 µM |
| O=C1CCC(N2Cc3cc(-c4cc(CN5CCC6(CCC6)CC5)cc5cncn45)ccc3C2=O)C(=O)N1 (stereo not shown) [Example 9] | 0.01 to 0.1 µM |
| O=C1CCC(N2Cc3cc(-c4nc5[nH]ccc5c(CN5CCCC5)c4Cl)ccc3C2=O)C(=O)N1 (stereo not shown) [Example 221] | 0.001 to 0.01 µM |
| Cn1ccc(-n2ccc3c(CN4CCCC4)cc(-c4ccc5c(c4)CN([C@H]4CCC(=O)NC4=O)C5=O)nc32)n1 [Example 265] | 0.001 to 0.01 µM |
| COC1CCN(Cc2cc(-c3ccc4c(c3F)CN(C3CCC(=O)NC3=O)C4=O)nc3c(NC(C)C)n[nH]c23)CC1 (stereo not shown) [Example 283] | 0.001 to 0.01 µM |
| O=C1CCC(N2Cc3c(ccc(-c4cc(CN5CCCC5)c5ccn(C6COC6)c5n4)c3Cl)C2=O)C(=O)N1 (stereo not shown) [Example 228] | 0.01 to 0.1 µM |

###

study target: IKZF2 (Homo sapiens (Human), UniProt Q96SW2+Q9UKS7)
assay overview: In vitro IKZF2 HiBit Assay (HEK293T Flp-in-HiBiT cells)
Format: cell-based
condition summary: HEK293T Flp-in-HiBiT cells, 6 hrs incubation; read-out: IKZF2 HiBit DC50
Method: In Vitro IKZF2 HiBit Assay The HiBiT protein tagging system was applied to modified HEK293T Flp-in-HiBiT cells (polyclone) via a CRISPR/Cas9-mediated insertion of the HiBiT peptide tag (Promega™) to the N-terminus of the IKZF2 gene locus (Neon™ transfection system). Test and reference compounds are diluted from 1 mM at 3 folds for 11 doses. […] The amount of Nano-Glo® HiBiT lytic reagent needed to perform the desired experiments is calculated. […] After briefly centrifuge, the plate is read on Envision. […]
recorded metric: DC50

| compound | study target | recorded metric | data value |
| --- | --- | --- | --- |
| O=C1CCC(N2Cc3cc(-c4cc(CN5CCCC5)c5ccn(C6CCCCC6)c5n4)ccc3C2=O)C(=O)N1 (stereo not shown) | IKZF2 (Homo sapiens (Human), UniProt Q96SW2+Q9UKS7) | DC50 | 1 to 10 nM |
| Cn1ccc2c(CN3CCCC3)cc(-c3cc4c(cc3F)C(=O)N(C3CCC(=O)NC3=O)C4)nc21 (stereo not shown) | IKZF2 (Homo sapiens (Human), UniProt Q96SW2+Q9UKS7) | DC50 | 100 to 1000 nM |
| CC1CCN(Cc2cc(-c3ccc4c(c3)CN(C3CCC(=O)NC3=O)C4=O)n3cncc3c2)C1 (stereo not shown) | IKZF2 (Homo sapiens (Human), UniProt Q96SW2+Q9UKS7) | DC50 | 10 to 100 nM |
| Cc1nc2c(CN3CCCC3)cc(-c3ccc4c(c3)CN(C3CCC(=O)NC3=O)C4=O)nc2n1C1COC1 (stereo not shown) | IKZF2 (Homo sapiens (Human), UniProt Q96SW2+Q9UKS7) | DC50 | 10 to 100 nM |
